Target: hA3AR (Homo sapiens, UniProt P0DMS8)
Construct: expressed in transfected cells
Sequence (P0DMS8 1-318): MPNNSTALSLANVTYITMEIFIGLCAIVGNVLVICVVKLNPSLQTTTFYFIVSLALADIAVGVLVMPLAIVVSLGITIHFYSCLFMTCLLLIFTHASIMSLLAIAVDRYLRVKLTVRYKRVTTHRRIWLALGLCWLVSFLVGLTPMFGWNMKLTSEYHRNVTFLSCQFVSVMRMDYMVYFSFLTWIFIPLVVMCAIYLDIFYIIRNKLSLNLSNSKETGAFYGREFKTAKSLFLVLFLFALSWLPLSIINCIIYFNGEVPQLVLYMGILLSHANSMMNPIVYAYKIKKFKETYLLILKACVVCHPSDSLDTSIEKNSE
Test: cAMP assay, inhibition of forskolin-stimulated cAMP in hA3AR-transfected CHO cells
Assay type: cell-based
Details: species h; percentage of maximal effect of 5′-N-ethylcarboxamidoadenosine 43, each at 10 μM
quantity measured: % efficacy (%)
Answer format: numeric, % implied, no suffix.

Task item: Please list % efficacy recorded for the compound O[C@@H]1[C@H](O)[C@@H]2C[C@@H]2[C@H]1n1cnc2c(NCc3cccc(Cl)c3)nc(C#Cc3ccccc3)nc21
Reply: 13.8

Task item: Let me know recorded % efficacy for CNC(=O)C12CC1C(n1cnc3c(NCc4cccc(Cl)c4)nc(C#Cc4cccc(S(=O)(=O)O)c4)nc31)C(O)C2O (stereo not drawn) , thanks.
Reply: 98.2

Task item: Read the entry CNC(=O)C12CC1C(n1cnc3c(NCc4cccc(Cl)c4)nc(C#Cc4ccc(S(=O)(=O)O)cc4)nc31)C(O)C2O (stereo not drawn) and write its reported % efficacy.
Reply: 98.6

Task item: Given the compound O[C@@H]1[C@H](O)[C@@H]2C[C@@H]2[C@H]1n1cnc2c(NCc3cccc(Cl)c3)nc(C#Cc3ccc(-c4ccccc4)cc3)nc21 , write its reported % efficacy.
Reply: 3.5

Task item: Fill in reported % efficacy for this entry: O[C@@H]1[C@H](O)[C@@H]2C[C@@H]2[C@H]1n1cnc2c(NCC(c3ccccc3)c3ccccc3)nc(C#Cc3ccccc3Cl)nc21
Reply: 2.6

Task item: Identify measured % efficacy associated with O[C@@H]1[C@H](O)[C@@H]2C[C@@H]2[C@H]1n1cnc2c(NCc3cccc(Cl)c3)nc(C#Cc3cccc(Cl)c3)nc21
Reply: 4.5

---

target: mA2AAR (Mus musculus, UniProt Q60613); construct: expressed in transfected cells; experiment: Radioligand binding, membranes of HEK293 cells stably expressing mA2AAR; settings: species m; inhibition of binding at 10 μM
Sequence (Q60613 whole entry): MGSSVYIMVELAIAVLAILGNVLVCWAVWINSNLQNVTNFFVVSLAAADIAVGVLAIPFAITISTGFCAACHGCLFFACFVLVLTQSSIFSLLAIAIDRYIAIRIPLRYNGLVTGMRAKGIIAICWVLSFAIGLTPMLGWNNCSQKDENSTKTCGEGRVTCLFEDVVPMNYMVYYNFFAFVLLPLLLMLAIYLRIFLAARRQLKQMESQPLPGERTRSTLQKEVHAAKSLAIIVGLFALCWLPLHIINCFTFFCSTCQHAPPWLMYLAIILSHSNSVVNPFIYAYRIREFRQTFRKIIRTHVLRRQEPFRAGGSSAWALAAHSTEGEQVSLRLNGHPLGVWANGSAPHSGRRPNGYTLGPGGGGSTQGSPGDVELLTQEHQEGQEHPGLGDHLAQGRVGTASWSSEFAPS
quantity measured: % inhibition A2A

- CNC(=O)C12CC1C(n1cnc3c(NCc4cccc(Cl)c4)nc(C#Cc4cccc(S(=O)(=O)O)c4)nc31)C(O)C2O (centres unmarked) [Cmpd 7]: (1% ± 1%)
- O[C@@H]1[C@H](O)[C@@H]2C[C@@H]2[C@H]1n1cnc2c(NCc3cccc(Cl)c3)nc(C#Cc3ccc(-c4ccccc4)cc3)nc21 [Cmpd 13]: (0%)
- CNC(=O)C12CC1C(n1cnc3c(NCCc4ccccc4)nc(C#Cc4ccccc4)nc31)C(O)C2O (centres unmarked) [Cmpd 17]: (1% ± 1%)
